// provenance: the array DNA melting data of Ke et al. (doi:10.1101/2024.01.08.574731)

Attribute: folding enthalpy
test: folding enthalpy; higher = less favourable; fluorescence melt of hairpins on a sequencing array, two-state fit; details: sodium 0.088 M
property.label: folding enthalpy (kcal/mol)

GTCGCAACGAAAGTTGAC (((..(((....)))))) ... -12.1
GACACCGAAAGGTCGGTC ((((((....)))..))) ... -16.7
CGCTACCGGAAACGGGCG (((..(((....)))))) ... -22.5
GTGCTCGGAAACGAGTGC (..((((....))))..) ... -24.2
GTTGTAGGAAACTACAGC (.(((((....))))).) ... -25.8
GCGACCGGAAACAGTCGC (((((.(....).))))) ... -39.2
GTCTACGGAAACGTAAAC ((.((((....)))).)) ... -14.4
GCGGTATACCGC ((((....)))) ... -27.4
GGTAACGGAAACGTTATC (.(((((....))))).) ... -24.5
GACCAGCCGAAAGGCGTC (((..(((....)))))) ... -7.85
GAGGATGGAAACGTCCTC (((((.(....).))))) ... -34.9
GATCCGATACGGATC ((((((...)))))) ... -32.7
GATCTTAAATAAGATC ((((((....)))))) ... -31.9
GGACAGGGAAACCTGCCC ((.((((....)))).)) ... -22.3
GGAACCCGAAAGGGGTCC (((.(((....))).))) ... -30.4
GCCCGGCGAAAGCATGGC (((..((....))..))) ... -19
GTAAACCGAAAGGTATAC (((.(((....))).))) ... -25.1
GCTGACGAAAGTCTAGC ((((((....))).))) ... -22.1
GATCCATAAATGGATC ((((((....)))))) ... -47.5
GTGAAACGAAAGTTACAC (((.(((....))).))) ... -29.7
GTTTTGCGAAAGCATAAC (((.(((....))).))) ... -25.4
GTGTTTGGAAACGAACAC (((((.(....).))))) ... -35.8
GCCGTCGAAAGACAGGGC ((((((....)))..))) ... -38.8
GCATAGCGAAAGCTGAGC ((..(((....)))..)) ... -15.7
GCACCGCGAAAGCGCGGC ((..(((....)))..)) ... -11
GTCTAGAAATAGAC (((((....))))) ... -14.9
GATCACCTAGGTGATC ((((((....)))))) ... -41.5
GCGGTTCGAAAGAATCGC (((.(((....))).))) ... -43.4
GGGATCGAAAGATTGCCC ((((((....)))..))) ... -14.6
GTTATAGAAATATAAC ((((((....)))))) ... -17.1
GCTACCGAAAGGTACAGC ((((((....)))..))) ... -13.6
GCGCTTGGAAACAAACGC (((.(((....))).))) ... -34.1
GCATTGCGAAAGCAGTGC (((.(((....))).))) ... -48.9
CGGACGGAAACGTGCCCG ((((((....)))..))) ... -14.8
GGATCTGAAAAGATCC ((((((....)))))) ... -37
GGGGTGGGAAACCACCTC (.(((((....))))).) ... -16.2
GATTGCGAAAGCACAATC ((((((....)))..))) ... -10.8
GATCCATATTTGGATC ((((((....)))))) ... -36.9
GTTGAGCGAAAGCTGAAC (((.(((....))).))) ... -23.9
GTCACCGGAAACAGTGAC (((((.(....).))))) ... -32.4
GCTTACGAAAGTAATAGC ((((((....)))..))) ... -17.8
GTACTGTCGAAAGACTAC (((..(((....)))))) ... -10.3
GGAGCCTCGAAAGAGTCC (((..(((....)))))) ... -9.23
GCTGGGGGAAACCCCGGC ((.((((....)))).)) ... -33.8
GCTGTGCGAAAGCAACGC ((..(((....)))..)) ... -13.7
GGCATCGGAAACGACGCC (((.(((....))).))) ... -42.1
GGGATAGGAAACTGTTCC ((.(.((....)).).)) ... -16.5
GGTCTCGAAAGAGAGACC ((((((....)))..))) ... -29.6
GTGCGATCGAAAGATCAC (((..(((....)))))) ... -18.2
GATCTGCGGCAGATC ((((((...)))))) ... -46.3
